Tested on: PC-12
measurement_protocol: Potentiation of NGF-induced neurite outgrowth in rat PC12 cells assessed increase in neurite length extending from cell bodies after 48 hrs by phase-contrast microscopy; call rule not given here
Format: functional, cell-based
Classes to choose from: YES (active), NO (inactive)

Q: What outcome does the record of this test show for COC(C)(C)/C=C/C[C@@]1(C)CC=C2CO[C@H]3C[C@@](C)(OC)O[C@@]23[C@@H]1/C=C\OC(=O)C=C(C)C ?
A: YES

---

Tested on: PC-12
measurement_protocol: Potentiation of NGF-induced neurite outgrowth in rat PC12 cells assessed increase in neurite length extending from cell bodies after 48 hrs by phase-contrast microscopy
Assay type: functional, cell-based
Calls of active or inactive are those of the source. The calls are words filed in the database; no cut-off is given here.
Pick from Y (active), N (inactive) when you respond.

Worked examples follow.
COC(C)(C)/C=C/C[C@@]1(C)CC=C(CO)C(=O)[C@H](CC(C)=O)[C@@H]1/C=C/OC(=O)C=C(C)C | N
CO[C@]1(C)C[C@@H]2OCC3=CC[C@](C)(C/C=C/C(C)C)[C@@H](/C=C/OC(=O)C=C(C)C)[C@]32O1 | Y

Q: Record request — test call for CO[C@@]1(C)C[C@@H]2OCC3=CC[C@](C)(C/C=C/C(C)C)[C@@H](/C=C/OC(=O)C=C(C)C)[C@]32O1
A: Y

Q: What is the recorded call for this molecule in the test? COC(C)(C)/C=C/C[C@@]1(C)CC=C2CO[C@H]3C[C@](C)(OC)O[C@@]23[C@@H]1/C=C/OC(=O)C=C(C)C
A: Y
